- ASSAY: Rapamycin trough blood concentrations
- Format: in vivo, human
- MEASUREMENT SETUP: human, whole blood, oral, 2 mg
READOUT TYPE: concentration at 7 days (ng/mL)
Express the result in ng/mL but write the number alone.

According to the records, this compound CO[C@H]1C[C@@H]2CC[C@@H](C)[C@@](O)(O2)C(=O)C(=O)N2CCCC[C@H]2C(=O)O[C@H]([C@H](C)C[C@@H]2CC[C@@H](O)[C@H](OC)C2)CC(=O)[C@H](C)/C=C(\C)[C@@H](O)[C@@H](OC)C(=O)[C@H](C)C[C@H](C)/C=C/C=C/C=C/1C displays concentration at 7 days of 123
